From: patent US20240010721A1

# Test Target: T1, human ROR1 (hROR1) on cells (human, UniProt Q01973 30-937)
# T1 construct: whole, on cells; the cell line is named under assay; also called HEK293T-hROR1; 293T-hROR1
# T1 sequence (Q01973 30-937): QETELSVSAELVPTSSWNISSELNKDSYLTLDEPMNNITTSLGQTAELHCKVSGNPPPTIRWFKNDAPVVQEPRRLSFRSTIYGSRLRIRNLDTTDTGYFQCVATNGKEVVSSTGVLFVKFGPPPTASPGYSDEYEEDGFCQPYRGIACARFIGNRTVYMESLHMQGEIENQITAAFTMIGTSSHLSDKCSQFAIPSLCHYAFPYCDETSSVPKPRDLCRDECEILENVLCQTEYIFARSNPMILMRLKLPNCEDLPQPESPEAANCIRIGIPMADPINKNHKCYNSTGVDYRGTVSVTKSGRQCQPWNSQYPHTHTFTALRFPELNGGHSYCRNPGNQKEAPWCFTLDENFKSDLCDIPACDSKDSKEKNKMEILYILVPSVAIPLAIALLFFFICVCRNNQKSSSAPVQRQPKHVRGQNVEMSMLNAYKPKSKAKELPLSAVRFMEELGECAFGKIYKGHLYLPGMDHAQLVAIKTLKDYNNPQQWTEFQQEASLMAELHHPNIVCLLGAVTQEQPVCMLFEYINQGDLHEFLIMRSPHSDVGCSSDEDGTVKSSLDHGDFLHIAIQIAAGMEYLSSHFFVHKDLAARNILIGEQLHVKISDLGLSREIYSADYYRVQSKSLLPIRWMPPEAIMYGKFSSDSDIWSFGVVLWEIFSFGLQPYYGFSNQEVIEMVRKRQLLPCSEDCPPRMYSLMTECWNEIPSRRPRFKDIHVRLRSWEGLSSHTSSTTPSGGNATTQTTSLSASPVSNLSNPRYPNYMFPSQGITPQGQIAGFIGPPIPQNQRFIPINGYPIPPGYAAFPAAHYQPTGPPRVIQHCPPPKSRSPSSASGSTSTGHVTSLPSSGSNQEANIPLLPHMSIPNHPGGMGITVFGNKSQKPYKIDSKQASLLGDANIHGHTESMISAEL
# Experimental Details: FACS, HEK293T-hROR1 cells
Below, each entry is listed alongside its reported fold lower EC50 than reference PR000374.
Field format: number, assumed fold, no unit text.

Prompt: Report fold lower EC50 than reference PR000374 for PR001359 (antibody, human IgG1, kappa, V domains shown, fully human IgG1, kappa) VH: QVQLVESGGGVVQPGRSLRLSCAASGFTFSTYGMHWVRQAPGKGLEWVAVTWYDGSDKDYADSVKGRFTISRDTSKNTLYLQMNSLRAEDTAVYYCAREQARSFDLWGRGTLVTVSS VL: DIVMTQSPSTLSASVGDRVTITCRASQSVNNWLAWYQQKPGKAPKLLIYKASSLESGVPSRFSGSGSGTEFTLTISSLQPDDFATYYCQQYKSYSPMYTFGQGTKVEIKR please.
Response: 10
